Cited source for all entries: the supplement of paper PMC10201428

B1: library; a variant is named by its letters at N, in order (parent)
chain: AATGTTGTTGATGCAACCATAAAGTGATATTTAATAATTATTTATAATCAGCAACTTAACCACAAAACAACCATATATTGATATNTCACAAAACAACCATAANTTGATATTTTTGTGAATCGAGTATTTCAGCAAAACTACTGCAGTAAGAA

Variants of: B1
Method: relative integration efficiency (T-LR orientation) vs wild-type transposon end (log2 (normalized fold change)); transposon end mutated: left end; higher = more efficient transposition
Recorded Conditions: with VchCAST RNA-guided transposition machinery (E. coli BL21(DE3) host, lacZ target)
In this section, each of the variants is paired with its reported relative integration efficiency (log2).
Outcome Measure: relative integration efficiency (log2)

{"Variant Label": "CA A23G G24T A33T T104A T110A T113A", "Recorded Measurement": -0.166}
{"Variant Label": "CG C52A A53C A54C C55A", "Recorded Measurement": 0.277}
{"Variant Label": "GG T82A A83T T84A", "Recorded Measurement": -0.904}
{"Variant Label": "CG A23G", "Recorded Measurement": 0.359}
{"Variant Label": "CG G106C", "Recorded Measurement": -2.1}
{"Variant Label": "CG A102G", "Recorded Measurement": -1.58}
{"Variant Label": "GG T84A", "Recorded Measurement": -0.365}
{"Variant Label": "CG A93C", "Recorded Measurement": -0.0609}
{"Variant Label": "CG T25G G26T", "Recorded Measurement": -0.611}
{"Variant Label": "CG T104A T105A G106C A107T", "Recorded Measurement": -1.39}
{"Variant Label": "CG T3G G4T T5G T6G", "Recorded Measurement": "< -10"}
{"Variant Label": "CG A33T A34T", "Recorded Measurement": 0.663}
{"Variant Label": "CG C18A A19C T20G A21C", "Recorded Measurement": -2.8}
{"Variant Label": "TA A23G G24T A33T T76A A77G C87T A96C T112G T113C", "Recorded Measurement": -0.402}
{"Variant Label": "CG T42A", "Recorded Measurement": 0.162}
{"Variant Label": "CT A101C A102C T104G", "Recorded Measurement": -2.08}
{"Variant Label": "TG G24A T30A A70C T76A T84A C87A", "Recorded Measurement": 0.298}
{"Variant Label": "CG A1T A2T T3A G4T T5A", "Recorded Measurement": -0.359}
{"Variant Label": "CG A40C", "Recorded Measurement": -0.351}
{"Variant Label": "TA A70C T76A T86G T104A T110A T113A", "Recorded Measurement": 0.0387}
{"Variant Label": "CC A22T A23T G24C T76A A77T T78A A102T T104A", "Recorded Measurement": -0.143}
{"Variant Label": "CG A88T C89G", "Recorded Measurement": 0.362}
{"Variant Label": "CG C60G C61G A62T C63G", "Recorded Measurement": 0.27}
{"Variant Label": "CG A59G", "Recorded Measurement": 0.164}
{"Variant Label": "TA A16C G24T T30A T76A T78G C87A A96C T112G T113C", "Recorded Measurement": -0.557}
{"Variant Label": "CA A16C G24T T32G A33C A96C T110A T113A", "Recorded Measurement": -1.02}
{"Variant Label": "CG T56A T57A A58T A59T", "Recorded Measurement": -1.3}
{"Variant Label": "CG A93G", "Recorded Measurement": -0.13}
{"Variant Label": "CG T43A A44T", "Recorded Measurement": 0.162}
{"Variant Label": "TA A22T G24T T31C A33C T76A A77G C87T A96C T110A T113A", "Recorded Measurement": 0.345}
{"Variant Label": "CG G10T A11C T12G G13T", "Recorded Measurement": -4.3}
{"Variant Label": "CG C61T", "Recorded Measurement": 0.151}
{"Variant Label": "CG T12A G13A T31C A77C T86G", "Recorded Measurement": -0.319}
{"Variant Label": "CG T45C", "Recorded Measurement": -0.0724}
{"Variant Label": "CG T104C", "Recorded Measurement": -0.483}
{"Variant Label": "CG T25G", "Recorded Measurement": -0.618}
{"Variant Label": "CG T12A G13A A77C T86G", "Recorded Measurement": -0.125}
{"Variant Label": "CT A22C A23C T76G A77C A102C", "Recorded Measurement": -3.01}
{"Variant Label": "AG T30G T31G T32G A33C T84G T86G C87A T110G T111G T112G T113G", "Recorded Measurement": -2.2}
{"Variant Label": "CG T45A A46T A47T T48A", "Recorded Measurement": 0.244}
{"Variant Label": "AG T86G", "Recorded Measurement": 0.305}
{"Variant Label": "CG T3C", "Recorded Measurement": 0.718}
{"Variant Label": "CG T105A G106C", "Recorded Measurement": -2.53}
{"Variant Label": "CG A70T C71G", "Recorded Measurement": -0.292}
{"Variant Label": "CG A36C A37C T38G T39G", "Recorded Measurement": -0.25}
{"Variant Label": "CG A40T T41A", "Recorded Measurement": -0.491}
